Assay: SUPPLEMENTARY: Lyophilisation Solubility Assay (LYSA)
Assay type: physicochemical
Settings: read-out: Kinetic_solubility
EXPERIMENTAL_ENDPOINT: solubility kinetic (µg/mL)

Some compounds with known solubility kinetic results, for comparison:
- STRUCTURE_SMILES_STRING: "CS(=O)(=O)Nc1cccc(-c2n[nH]c([C@H]3CCCCN3C(=O)COc3ccccc3)n2)c1"
  EXPERIMENTAL_ENDPOINT: "solubility kinetic"
  RECORDED_RESULT: 103
- STRUCTURE_SMILES_STRING: "O=C([C@H]1CCCCN1C(=O)COc1ccccc1)N1Cc2ccc(OCC3CC3)cc2C1"
  EXPERIMENTAL_ENDPOINT: "solubility kinetic"
  RECORDED_RESULT: 5
- STRUCTURE_SMILES_STRING: "Cc1cc(C)cc(S(=O)(=O)n2ccc3ccc(C(=O)Nc4ccc(C(=O)O)cc4)cc32)c1"
  EXPERIMENTAL_ENDPOINT: "solubility kinetic"
  RECORDED_RESULT: 1
- STRUCTURE_SMILES_STRING: "N#Cc1cccc(-c2n[nH]c([C@H]3CCCCN3C(=O)COc3ccccc3)n2)c1"
  EXPERIMENTAL_ENDPOINT: "solubility kinetic"
  RECORDED_RESULT: 31
- STRUCTURE_SMILES_STRING: "O=C(COc1ccccc1)N1CCNC[C@@H]1c1nc(-c2ccc3[nH]cnc3c2)no1"
  EXPERIMENTAL_ENDPOINT: "solubility kinetic"
  RECORDED_RESULT: 367

P = O=C(O)Cc1csc(NC(=O)c2ccc3c(c2)N(S(=O)(=O)c2cccc(Cl)c2)CC3)n1
Q = NC(=O)c1cn2ccc(-c3noc([C@H]4CCCCN4C(=O)COc4ccccc4)n3)cc2n1
Q: Between P and Q , which one has the lower reported solubility kinetic value? Which one? Tell me its label.
Ans: Q
(Q: 10 µg/mL, P: 260 µg/mL)

---

Assay: SUPPLEMENTARY: Lyophilisation Solubility Assay (LYSA)
Assay type: physicochemical
Conditions: read-out: Kinetic_solubility
EXPERIMENTAL_ENDPOINT: solubility kinetic (µg/mL)

Known solubility kinetic results, listed for orientation:
- COMPOUND: "COc1ccc(Cl)cc1S(=O)(=O)N1CC(C)c2ccc(C(=O)Nc3ccc(C(=O)O)cc3)cc21 (centres undefined)"
  EXPERIMENTAL_ENDPOINT: "solubility kinetic"
  RESULT_UNITS: "µg/mL"
  RECORDED_RESULT: 12
- COMPOUND: "O=C(COc1ccccc1)N1CCCC[C@@H]1c1noc(C2CCCC2)n1"
  EXPERIMENTAL_ENDPOINT: "solubility kinetic"
  RESULT_UNITS: "µg/mL"
  RECORDED_RESULT: 20
- COMPOUND: "O=C1Cc2ccc(-c3noc([C@H]4CCCCN4C(=O)COc4ccccc4)n3)cc2N1"
  EXPERIMENTAL_ENDPOINT: "solubility kinetic"
  RESULT_UNITS: "µg/mL"
  RECORDED_RESULT: 13

A = O=C(COc1ccccc1)N1CCCC[C@@H]1c1nc(-c2ccc(-c3cnc[nH]3)cc2)no1
B = CN(C)C(=O)c1ccc(-c2noc(C3C4CC4CN3C(=O)COc3ccccc3)n2)cc1 (centres undefined)
C = O=C1NCc2ccc(-c3n[nH]c([C@H]4CCCCN4C(=O)COc4ccccc4)n3)cc2N1
D = COc1ccc(Cl)cc1S(=O)(=O)N(C)c1cc(C(=O)Nc2nc(CC(=O)O)cs2)cc2c1OCCO2
E = Cc1cc(C)cc(S(=O)(=O)N2CCc3ccc(C(=O)Nc4nc(CC(=O)O)cs4)cc32)c1
Q: Sort the 5 compounds by solubility kinetic; largest first, smallest last. Labels, requested order.
Ans: D, B, C, A, E

a = COc1ccc(C)cc1S(=O)(=O)N1CCCc2ccc(C(=O)Nc3ccc(C(=O)O)c(F)c3)cc21
b = COc1ccc(Cl)cc1S(=O)(=O)c1c2cc(C(=O)Nc3ccc(C(=O)O)cc3)ccc2nn1C
Q: Short answer wanted: higher solubility kinetic, a or b ? Pick one and reply with its label.
Ans: a
(a: 60 µg/mL, b: 36 µg/mL)

a = CC(C)C(=O)Nc1cccc(-c2n[nH]c([C@H]3CCCCN3C(=O)COc3ccccc3)n2)c1
b = CCOc1ccc(C(=O)Nc2ccc(CC(=O)O)cc2)cc1N(CCS(=O)O)S(=O)(=O)c1cc(Cl)ccc1OC
Q: Please indicate which item has the smaller measured solubility kinetic: a versus b Kindly give the label for the entry you pick.
Ans: a
(a: 29 µg/mL, b: 577 µg/mL)
